Data provenance: ChEMBL document CHEMBL4699558

# System: Staphylococcus aureus
# Assay overview: Antibacterial activity against Staphylococcus aureus ATCC 29213 by CLSI method
# Format: functional
Quantity: MIC (µg/mL)
Give the value, in units of µg/mL, as a plain number.

The following molecules have reported results that may help.
{"Smiles entry": "CCCCCN(CCCCC)Cc1cc(C(=O)O)ccc1NC(=O)c1cc2cc(F)cc(NC)c2[nH]c1=O", "Assay system": "Staphylococcus aureus", "Unit text": "µg/mL", "MIC": 0.06}
{"Smiles entry": "CNc1cc(F)cc2cc(C(=O)Nc3ccc(C(=O)O)cc3)c(=O)[nH]c12", "Assay system": "Staphylococcus aureus", "Unit text": "µg/mL", "MIC": 4}
{"Smiles entry": "CN(C)c1cc(NC(=O)CNC(C)(C)C)c(O)c2c1C[C@H]1C[C@H]3[C@H](N(C)C)C(O)=C(C(N)=O)C(=O)[C@@]3(O)C(O)=C1C2=O", "Assay system": "Staphylococcus aureus", "Unit text": "µg/mL", "MIC": 0.25}

# evaluate next
# MIC (molecule: CNc1cc(F)cc2cc(C(=O)Nc3ccc(C(=O)O)cc3CN(C)C3CCCCC3)c(=O)[nH]c12.Cl ) is 2

====

# System: Staphylococcus aureus
# Assay overview: Antibacterial activity against community-acquired Methicillin -resistant Staphylococcus aureus ATCC BAA-1556 by CLSI method
# Format: functional
Quantity: log10(MIC) (log10 of the value in µg/mL)
The base-10 logarithm of MIC, taken with MIC in µg/mL, is what appears here.

The following compounds have reported results that may help.
{"Smiles entry": "CNc1cc(F)cc2cc(C(=O)Nc3ccc(C(=O)O)cc3CN(CCO)C3CCCCC3)c(=O)[nH]c12.Cl", "Quantity": "log10(MIC)", "Assay value": 0.00}
{"Smiles entry": "CNc1cc(F)cc2c(O)c(C(=O)Nc3ccc(C(=O)NS(=O)(=O)N(C)C)cc3)c(=O)[nH]c12", "Quantity": "log10(MIC)", "Assay value": 0.00}
{"Smiles entry": "CNc1cc(F)cc2cc(C(=O)Nc3ccc(C(=O)O)cc3)c(=O)[nH]c12", "Quantity": "log10(MIC)", "Assay value": 0.90}
{"Smiles entry": "CN(C)c1cc(NC(=O)CNC(C)(C)C)c(O)c2c1C[C@H]1C[C@H]3[C@H](N(C)C)C(O)=C(C(N)=O)C(=O)[C@@]3(O)C(O)=C1C2=O", "Quantity": "log10(MIC)", "Assay value": -0.30}
{"Smiles entry": "CNc1cc(F)cc2c(O)c(C(=O)Nc3ccc(C(=O)O)cc3)c(=O)[nH]c12", "Quantity": "log10(MIC)", "Assay value": -0.60}
{"Smiles entry": "CNc1cc(F)cc2cc(C(=O)Nc3ccc(C(=O)O)cc3CN3CCCCC3)c(=O)[nH]c12", "Quantity": "log10(MIC)", "Assay value": 0.60}
{"Smiles entry": "CNc1cc(F)cc2cc(C(=O)Nc3ccc(CO)cc3CN(CCO)C3CCCCC3)c(=O)[nH]c12", "Quantity": "log10(MIC)", "Assay value": 0.30}

# evaluate next
# log10(MIC) (compound: CCCCCN(CCCCC)Cc1cc(C(=O)O)ccc1NC(=O)c1cc2cc(F)cc(NC)c2[nH]c1=O ) is -0.30
